Ref: patent US20230072683A1

- TEST SYSTEM: DNA-PK(h) (Homo sapiens)
- ASSAY REMARKS: Evaluation of inhibitory activity against DNA-PK (HTRF kinase assay, GST-cMyc-p53 substrate)
- Format: biochemical
- ASSAY CONDITIONS: compound concentration 0.01 μM; read-out: EXP_VALUE(% Inhibition) DNA-PK(h) 0.01 μM
VALUE TYPE: inhibition at 0.01 µM (%)

Record excerpt, results attached:
> print(dat)
                              line.notation             value.type  endpoint.unit  experimental.result
1  C[C@H](Nc1ncnc2[nH]ccc(=O)c12)c1c(Cl)c2cccc(-c3ccc(-c4noc(C(C)(C)C)n4)cc3)c2c(=O)n1-c1ccccc1  inhibition at 0.01 µM              %                    7
2  C[C@H](Nc1ncnc2[nH]ccc(=O)c12)c1c(Cl)c2cccc(-c3cnc(C(C)(C)C)nc3)c2c(=O)n1-c1ccccc1  inhibition at 0.01 µM              %                   58
3  C[C@H](Nc1ncnc2[nH]ccc(=O)c12)c1c(Cl)c2cccc(-c3cc4ccccc4o3)c2c(=O)n1-c1ccccc1  inhibition at 0.01 µM              %                   25
4  CC(C)Nc1ncc(-c2cccc3c(Cl)c([C@H](C)Nc4ncnc5[nH]ccc(=O)c45)n(-c4ccccc4)c(=O)c23)cn1  inhibition at 0.01 µM              %                   73

P: COc1ccc(-c2cccc3c(Cl)c([C@H](C)Nc4ncnc5[nH]ccc(=O)c45)n(-c4ccccc4)c(=O)c23)cc1F
Q: C[C@H](Nc1ncnc2[nH]ccc(=O)c12)c1c(Cl)c2cccc(-c3ccc(C#N)cc3)c2c(=O)n1-c1ccccc1
stdin: Which value of inhibition at 0.01 µM is smaller, the one for P or the one for Q ? Output the label that corresponds to your choice.
stdout: Q

* * *

- TEST SYSTEM: DNA-PK(h) (Homo sapiens, UniProt P78527)
- ASSAY REMARKS: Evaluation of inhibitory activity against DNA-PK (HTRF kinase assay, GST-cMyc-p53 substrate)
- Format: biochemical
- ASSAY CONDITIONS: compound at 0.1 μM; read-out: EXP_VALUE(% Inhibition) DNA-PK(h) 0.1 μM
VALUE TYPE: inhibition at 0.1 µM (%)

> print(dat)
                                    compound  experimental.result
 1  CC(C)Sc1cccc2c(Cl)c([C@H](C)Nc3ncnc4[nH]ccc(=O)c34)n(-c3ccccc3)c(=O)c12                   23
 2  C[C@H](Nc1ncnc2[nH]ccc(=O)c12)c1c(Cl)c2cccc(Sc3nc[nH]n3)c2c(=O)n1-c1ccccc1                   -2
 3  CCC[S@](=N)(=O)c1cccc2c(Cl)c([C@H](C)Nc3ncnc4[nH]ccc(=O)c34)n(-c3ccccc3)c(=O)c12                   53
 4  C[C@H](Nc1ncnc2[nH]ccc(=O)c12)c1c(Cl)c2cccc(S(=O)(=O)c3ccc(Cl)cc3)c2c(=O)n1-c1ccccc1                   17
 5  C[C@H](Nc1ncnc2[nH]ccc(=O)c12)c1c(Cl)c2cccc(S(=O)(=O)c3nc[nH]n3)c2c(=O)n1-c1ccccc1                   24
 6  C[C@H](Nc1ncnc2[nH]ccc(=O)c12)c1c(Cl)c2cccc(SC(C)(C)C)c2c(=O)n1-c1ccccc1                    8
 7  C[C@H](Nc1ncnc2[nH]ccc(=O)c12)c1c(Cl)c2cccc([S@](=N)(=O)c3ncccn3)c2c(=O)n1-c1ccccc1                    7
 8  COc1ncc(-c2cccc3cc([C@H](C)Nc4ncnc5[nH]ccc(=O)c45)n(-c4ccccc4)c(=O)c23)cn1                   10
 9  C[C@H](Nc1ncnc2[nH]ccc(=O)c12)c1c(Cl)c2cccc(S(=O)(=O)C(C)(C)C)c2c(=O)n1-c1ccccc1                   24
10  C[C@H](Nc1ncnc2[nH]ccc(=O)c12)c1c(Cl)c2cccc(-c3cnc(OC(C)(C)C)nc3)c2c(=O)n1-c1ccccc1                   56

P: C[C@H](Nc1ncnc2[nH]ccc(=O)c12)c1c(Cl)c2cccc([S+]([O-])c3ccccn3)c2c(=O)n1-c1ccccc1 (some centres unmarked)
Q: C[C@H](Nc1ncnc2[nH]ccc(=O)c12)c1c(Cl)c2cccc(-c3cnc(S(C)(=N)=O)nc3)c2c(=O)n1-c1ccccc1 (some centres unmarked)
R: COc1cc(-n2ccc(=O)c3c(N[C@@H](C)c4c(Cl)c5ccccc5c(=O)n4-c4ccccc4)ncnc32)ccn1
stdin: Put the items in sequence by inhibition at 0.1 µM, from largest down. I'd appreciate it if you listed the labels in the requested order.
stdout: Q, P, R

A: C[C@H](Nc1ncnc2[nH]ccc(=O)c12)c1c(Cl)c2cccc(C(F)(F)F)c2c(=O)n1-c1ccccc1
B: CC[S@@](=N)(=O)c1cccc2c(Cl)c([C@H](C)Nc3ncnc4[nH]ccc(=O)c34)n(-c3ccccc3)c(=O)c12
stdin: Pick one: A or B . Which has the bigger inhibition at 0.1 µM number? Output the label that corresponds to your choice.
stdout: A
(A: 32%, B: 18%)
